Entries annotated with measured Percent Effect
- System: Wolbachia pipientis
- PROTOCOL_SUMMARY: Anti-Wolbachia Cell-Based Screen
- Type: functional
- Parameters: scale not given: in the data most compounds retested in dose-response had high values
- TEST_CONDITIONS: 5 µM
The whole screen tested about 48,000 compounds, of which about 13,000 (27%) showed an effect of 50% or more. Some of the results follow.
Note: unit % is implicit; provide only the numeric part.

| MOLECULE | TGT | UNIT_TAG | Percent Effect |
| --- | --- | --- | --- |
| CC(C)Oc1ccc(NCc2ccc([S+](C)[O-])cc2)c(F)c1 (stereo unspecified) | Wolbachia pipientis | % | 7.808 |
| CCCN1CCCC1c1nc(Cc2ccc(F)cc2)no1 (stereo unspecified) | Wolbachia pipientis | % | -11.63 |
| CN(C)C(=O)CN1CCN(c2ccnc3c(F)ccc(F)c23)CC1 | Wolbachia pipientis | % | 6.891 |

Given the molecule "CN(C)C(=O)CN1CCC(c2cccc(Cc3ccc(F)cc3)n2)CC1" , what is its reported Percent Effect? 83.25

Given the molecule CN1CCCC1c1cccc(Cc2ccccc2F)n1 (stereo unspecified) , what is its reported Percent Effect? -8.343

Given the molecule "COC[C@@H]1CC[C@H]2[C@H](CCN2S(=O)(=O)c2ccc(F)cc2)O1" , what is its reported Percent Effect? 6.066
